assay: yeast display, Sf9 membrane polyspecificity reagent, FACS + sequencing; frameworks hold sequencing errors
recorded_metric: polyreactivity (PSR sort gate)

A selection of reference data follows.
QGQHVDSGGVLVQAGGSLRLSCAASGITVYLYAMGWYRPAPGKEREMVATISRSGGSTYADSVKGRFTISRDNAKNTVYLQMYSLKPEDSAVYYCNADVLSTGYIAYDYWGQGTQVTVSS :: low polyreactivity
QVQLVESGGGLVQAGGSHRLSFAASGSIFTRYAMGWYRPAHGKEREFVAGISWTGGSTYYADSVKGRFTISRDIAKNTVYLQMYRLKPEDTGVYYCAAGYWYSAFSGWWDYSDLYYWGQGTQVTVSS :: high polyreactivity
QVQLVESGGGLVQAGGSLRLSCAASGSIFFYYAMGWYSQAPGTERELVAAIRNGGSTKYADSVKGRFTISRDNAKNTVYLQMNSLKPEDTAVYYCAAGYPVTRRTIRFDYWGQGTQVTVSS :: high polyreactivity
KVQLLYSAGGLVHAGGSLRLSCAASGNIFRSYAMGWYRQAPGKERELVAAISSRGGSTYYADTVKVRFTISRDNAMNTVYLQMNSLKPEDTAVYYCNAPSTQQGPKYDYWGQGTQVTVSS :: low polyreactivity

Bench note: what polyreactivity (PSR sort gate) did QVQLVESGGGLVQAGGSLRLSCAASGFIFTRYVMGWYRQAAGKERELVAAISRIGASTYYADSVKGRFTISRDNAKNNFYLQMNCLNPEATAVYYCKVVSGGYCEYDYWGHGTQVTVSS show? high polyreactivity
